Assignment: determine reported molar absorption coefficient (ε) for the given compounds.
test: Absorption spectrum in ethyl acetate solution (spectrophotometer UV-2400PC); type: physicochemical

[Q] Report molar absorption coefficient (ε) for CC1CC(C(C)(C)C)C(OC(=O)c2c(-c3ccccc3)c(C=C3N=C(NC(=O)C(C)(C)C)C(C#N)=C3c3ccccc3)[n]([Zn][OH])c2NC(=O)c2cccc(C(F)(F)F)c2)C(C(C)(C)C)C1 (centres unmarked) please.
[A] 85,200

[Q] Report molar absorption coefficient (ε) for CC1CC(C(C)(C)C)C(OC(=O)c2c(-c3ccccc3)c(C=C3N=C(NC(=O)C(C)SCCCS(=O)(=O)[O-])C(C#N)=C3c3ccccc3)[n]([Zn][OH])c2NC(=O)c2cc(F)cc(F)c2)C(C(C)(C)C)C1.[Na+] (centres unmarked) please.
[A] 95,600

[Q] Report molar absorption coefficient (ε) for CC1CC(C(C)(C)C)C(OC(=O)c2c(-c3ccccc3)c3[n](c2NC(=O)c2cccc(C(F)(F)F)c2)[Zn-]([OH])[N+]2=C(NC(=O)C(C)SCCCS(=O)(=O)[O-])C(C#N)=C(c4ccccc4)C2=C3)C(C(C)(C)C)C1.[Na+] (centres unmarked) please.
[A] 88,700

[Q] Report molar absorption coefficient (ε) for CC1CC(C(C)(C)C)C(OC(=O)C2=C(c3ccccc3)C3=Cc4c(-c5ccccc5)c(C(=O)OC5C(C(C)(C)C)CC(C)CC5C(C)(C)C)c(NC(=O)c5ccc(F)c(Br)c5)[n]4[Zn-]([OH])[N+]3=C2NC(=O)c2ccc(F)c(Br)c2)C(C(C)(C)C)C1 (centres unmarked) please.
[A] 100,900

[Q] Report molar absorption coefficient (ε) for CC(=O)NC1=[N+]2C(=Cc3c(-c4ccccc4)c(C(=O)OC4C(C(C)(C)C)CC(C)CC4C(C)(C)C)c(NC(=O)c4cc(F)c(F)c(F)c4)[n]3[Zn-]2[OH])C(c2ccccc2)=C1C#N (centres unmarked) please.
[A] 89,100

[Q] Report molar absorption coefficient (ε) for CC1=C(C(=O)OC2C(C(C)(C)C)CC(C)CC2C(C)(C)C)C(NC(=O)c2c(F)c(F)c(O)c(F)c2F)=[N+]2C1=Cc1c(C)c(C(=O)OC3C(C(C)(C)C)CC(C)CC3C(C)(C)C)c(NC(=O)c3c(F)c(F)c(O)c(F)c3F)[n]1[Zn-]2[OH] (centres unmarked) please.
[A] 109,400

[Q] Report molar absorption coefficient (ε) for CC1CC(C(C)(C)C)C(OC(=O)c2c(-c3ccccc3)c3[n](c2NC(=O)c2c(F)c(F)c(F)c(F)c2F)[Zn-]([OH])[N+]2=C(NC(=O)C(C)Sc4cc(C(=O)O)cc(C(=O)O)c4)C(C#N)=C(c4ccccc4)C2=C3)C(C(C)(C)C)C1 (centres unmarked) please.
[A] 106,400

[Q] Report molar absorption coefficient (ε) for CC1CC(C(C)(C)C)C(OC(=O)c2c(-c3ccccc3)c3[n](c2NC(=O)c2ccc(F)c(Br)c2)[Zn-]([OH])[N+]2=C(NC(=O)C(C)Sc4cc(C(=O)O)cc(C(=O)O)c4)C(C#N)=C(c4ccccc4)C2=C3)C(C(C)(C)C)C1 (centres unmarked) please.
[A] 100,500

###

test: Storage stability of colored resist solution (precipitation after one month at room temperature); format: physicochemical; parameters: key: A: No precipitation was observed; B: Slight precipitation was observed; C: Precipitation was observed; conditions: negative-working colored resist solution, visual precipitation
OUTCOME MEASURE: Storage stability

Solved cases below.
| COMPOUND | OUTCOME MEASURE | ENDPOINT VALUE |
| --- | --- | --- |
| CC1CC(C(C)(C)C)C(OC(=O)c2c(-c3ccccc3)c(C=C3N=C(NC(=O)C(C)(C)C)C(C#N)=C3c3ccccc3)[n]([Zn][OH])c2NC(=O)c2c(F)c(F)c(C(=O)O)c(F)c2F)C(C(C)(C)C)C1 (centres unmarked) | Storage stability | A |
| CC1=C(C(=O)OC2C(C(C)(C)C)CC(C)CC2C(C)(C)C)C(NC(=O)c2ccc(F)c([N+](=O)[O-])c2)=[N+]2C1=Cc1c(C)c(C(=O)OC3C(C(C)(C)C)CC(C)CC3C(C)(C)C)c(NC(=O)c3ccc(F)c([N+](=O)[O-])c3)[n]1[Zn-]2[OH] (centres unmarked) | Storage stability | B |
| Cc1c(C(=O)OC2C(C(C)(C)C)CC(C)CC2C(C)(C)C)c(NC(=O)c2ccc(C(F)(F)F)cc2)[n]2c1C=C1C(c3ccccc3)=C(C#N)C(NC(=O)C(C)Sc3cc(C(=O)O)cc(C(=O)O)c3)=[N+]1[Zn-]2[OH] (centres unmarked) | Storage stability | A |
| Cc1c(C(=O)OC2C(C(C)(C)C)CC(C)CC2C(C)(C)C)c(NC(=O)c2ccc(F)c(F)c2)[n]2c1C=C1C(c3ccccc3)=C(C#N)C(NC(=O)C(C)Sc3cc(C(=O)O)cc(C(=O)O)c3)=[N+]1[Zn-]2[OH] (centres unmarked) | Storage stability | A |
| CC1CC(C(C)(C)C)C(OC(=O)C2=C(c3ccccc3)C3=Cc4c(-c5ccccc5)c(C(=O)OC5C(C(C)(C)C)CC(C)CC5C(C)(C)C)c(NC(=O)c5c(F)c(F)c(C(=O)O)c(F)c5F)[n]4[Zn-]([OH])[N+]3=C2NC(=O)c2c(F)c(F)c(C(=O)O)c(F)c2F)C(C(C)(C)C)C1 (centres unmarked) | Storage stability | A |

[Q] Report Storage stability for CC1CC(C(C)(C)C)C(OC(=O)c2c(-c3ccccc3)c3[n](c2NC(=O)c2cc(F)ccc2NS(C)(=O)=O)[Zn-]([OH])[N+]2=C(NC(=O)C(C)Sc4cc(C(=O)O)cc(C(=O)O)c4)C(C#N)=C(c4ccccc4)C2=C3)C(C(C)(C)C)C1 (centres unmarked) please.
[A] B

[Q] Report Storage stability for Cc1c(C(=O)OC2C(C(C)(C)C)CC(C)CC2C(C)(C)C)c(NC(=O)c2cc(F)cc(F)c2)[n]2c1C=C1C(c3ccccc3)=C(C#N)C(NC(=O)C(C)Sc3cc(C(=O)O)cc(C(=O)O)c3)=[N+]1[Zn-]2[OH] (centres unmarked) please.
[A] A

[Q] Report Storage stability for Cc1c(C(=O)OC2C(C(C)(C)C)CC(C)CC2C(C)(C)C)c(NC(=O)c2cccc(C(F)(F)F)c2)[n]([Zn][OH])c1C=C1N=C(NC(=O)C(C)(C)C)C(C#N)=C1c1ccccc1 (centres unmarked) please.
[A] A
